Biological target: Follistatin-related protein 3 (Homo sapiens) (UniProt O95633)
Sequence (O95633 whole entry, looked up): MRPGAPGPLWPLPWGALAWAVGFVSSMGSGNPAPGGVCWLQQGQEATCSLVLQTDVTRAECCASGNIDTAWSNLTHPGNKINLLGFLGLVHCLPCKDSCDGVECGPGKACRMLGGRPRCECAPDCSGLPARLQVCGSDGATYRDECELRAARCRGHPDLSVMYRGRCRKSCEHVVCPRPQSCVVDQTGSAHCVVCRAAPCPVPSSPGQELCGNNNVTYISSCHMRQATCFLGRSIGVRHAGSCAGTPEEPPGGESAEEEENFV
Experiment: compounds binding follistatin-related protein 3 – biochemical, small-molecule microarray, 635 nm fluorescence, primary screen (AID 1105);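 also: score merges emission near 667 nm and signal to noise per printed spot across three slides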
Conditions: FSTL3 binding, higher = more signal
Entries and their composite z-score
assay-endpoint: composite z-score

>>> experimental_result("O=c1c2ccc(Br)cc2nc(-c2ccccc2)n1Cc1cccc(O)c1")
0.547
>>> experimental_result("CCC[C@@H]1C[C@@]1(CCC)[C@@H](NC(=O)c1cccs1)c1ccc(Cl)cc1")
-2.17
>>> experimental_result("COC(=O)[C@@]1(Cc2ccc(OC)cc2)[C@H]2c3cc(C(=O)N4CCCC4)n(Cc4ccc(C)o4)c3C[C@H]2CN1C(=O)c1ccccc1")
1.32
>>> experimental_result("CO[C@H]1O[C@H](CO)[C@@H](OC(=O)Nc2ccc(C(F)(F)F)cc2)[C@H](OC(=O)Nc2ccccc2)[C@H]1OC(=O)Nc1ccccc1")
1.2
>>> experimental_result("COC(=O)[C@@]1(Cc2ccccc2)[C@H]2c3cc(C(=O)N(C)C)n(Cc4ccc(O)c(OC)c4)c3C[C@H]2CN1C(=O)c1ccccc1")
0.764
>>> experimental_result("O=C1OCCC=C[C@H]2OC34C=CCN(Cn5nnc6ccccc65)C(=O)[C@H]3N(CCCCCO)C(=O)[C@@H]4C12 (some centres not stated)")
-1.09
>>> experimental_result("O=C1C[C@@](C(=O)NCc2ccccc2)(c2ccc([N+](=O)[O-])cc2)[C@@H](c2ccc(CO)cc2I)N1C1CCCCC1")
1.33
